Provide the reported growth inhibition of each item.
- measurement-protocol: NCI Yeast Anticancer Drug Screen. Data for the bub3 strain (AID 167)
- recorded-conditions: S. cerevisiae bub3 mutant strain, at 50.0 µM (retest, dose inferred, filed as 5.0), active compounds read high
About 79,000 compounds went through this panel and 15% of them were active in at least one assay; those are over-represented in the sample as a whole.
Numbers only, in %.

Look over these answered cases.
[
  {
    "compound": "CCOc1c(N=Nc2ccc(Cl)cc2)c(-c2ccccc2)nn1C(N)=S",
    "readout": "growth inhibition",
    "result-number": 92
  },
  {
    "compound": "Cc1ccc(S(=O)(=O)N/N=C2/CCC3(O)CC2(C)CCC2[C@H]3CC2(C)C)cc1 (stereo not given in full)",
    "readout": "growth inhibition",
    "result-number": 86
  },
  {
    "compound": "C[C@]12C/C(=C/C(F)(F)F)C(=O)C[C@@H]1CC[C@@H]1[C@@H]2CC[C@]2(C)[C@@H](C(=O)O)CC[C@@H]12",
    "readout": "growth inhibition",
    "result-number": 95
  },
  {
    "compound": "NC1=NC2=C(CCCC2)C(c2cccs2)S1 (stereo not given)",
    "readout": "growth inhibition",
    "result-number": 74
  },
  {
    "compound": "CN(C)c1ccc(C(O)(Cc2cccnc2)c2ccc(N(C)C)cc2)cc1",
    "readout": "growth inhibition",
    "result-number": 1
  }
]

Take each entry in turn and give its growth inhibition.
1. COC(=O)c1cccc2cccc(C(=O)Nc3ccc(C)cc3C)c12
2. Nc1ccc(C(=O)Nc2ccc(C(=O)Nc3ccc(/C=C/c4ccc(NC(=O)c5ccc(N)cc5)cc4S(=O)(=O)O)c(S(=O)(=O)O)c3)cc2)cc1

1. 92
2. 82

Provide the reported growth inhibition of each entry below, same order.
1. O=C(O)CCC/C(=N\Nc1ccccc1)C(=O)O
2. O=C(N/C(=C\c1ccc2c(c1)OCO2)c1nc2ccccc2s1)c1ccccc1
3. c1cc(SSc2ccncc2)ccn1
4. CCCN(CCC)c1ccc(/C=C/c2ccnc3ccccc23)cc1

[98, 98, 69, 88]

Return reported growth inhibition values for all items listed beneath this line.
1. C#CCOC(=O)Nc1nc2ccc(SC#N)cc2s1
2. Cc1cc(Cl)ccc1C(=O)c1ccc2ccccc2c1C(=O)O
3. O=C1OCCN1/N=C/c1ccc([N+](=O)[O-])o1

90
87
39

// for each compound in input: emit growth inhibition
1. Cc1cccc[n+]1CC(=O)c1cccc(O)c1
2. CC(C)OC(=O)c1ccccc1C(=C1C=C(Br)C(=O)C(Br)=C1)c1cc(Br)c(O)c(Br)c1

-3
97
